# experiment.description: PET hydrolysis, aromatic products released after 48 h (umol product/mg enzyme); higher = more PET depolymerization activity
# test.parameters: substrate: aFilm; 60 °C; pH 8.5
Would you kindly list PET hydrolysis for each of these sequences?

Sample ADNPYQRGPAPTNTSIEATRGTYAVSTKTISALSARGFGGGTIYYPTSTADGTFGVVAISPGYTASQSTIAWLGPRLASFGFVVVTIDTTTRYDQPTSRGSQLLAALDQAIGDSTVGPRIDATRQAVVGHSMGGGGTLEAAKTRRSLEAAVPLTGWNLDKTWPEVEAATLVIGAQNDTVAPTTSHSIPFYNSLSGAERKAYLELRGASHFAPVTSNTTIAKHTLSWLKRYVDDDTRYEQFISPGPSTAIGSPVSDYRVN [DP022] ; PET hydrolysis observed: < 3

PET hydrolysis in this record for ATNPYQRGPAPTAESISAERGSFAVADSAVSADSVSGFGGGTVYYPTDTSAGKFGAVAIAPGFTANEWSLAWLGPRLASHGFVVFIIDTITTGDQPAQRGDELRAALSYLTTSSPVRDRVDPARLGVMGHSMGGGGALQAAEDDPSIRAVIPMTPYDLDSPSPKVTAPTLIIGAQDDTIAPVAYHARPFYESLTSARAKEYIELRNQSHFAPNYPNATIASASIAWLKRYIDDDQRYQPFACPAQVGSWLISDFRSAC [DP034] : < 3

----------
# experiment.description: PET hydrolysis, aromatic products released after 48 h (umol product/mg enzyme); higher = more PET depolymerization activity
# test.parameters: substrate: aFilm; 40 °C; pH 5.5
readout.label: PET hydrolysis

sequence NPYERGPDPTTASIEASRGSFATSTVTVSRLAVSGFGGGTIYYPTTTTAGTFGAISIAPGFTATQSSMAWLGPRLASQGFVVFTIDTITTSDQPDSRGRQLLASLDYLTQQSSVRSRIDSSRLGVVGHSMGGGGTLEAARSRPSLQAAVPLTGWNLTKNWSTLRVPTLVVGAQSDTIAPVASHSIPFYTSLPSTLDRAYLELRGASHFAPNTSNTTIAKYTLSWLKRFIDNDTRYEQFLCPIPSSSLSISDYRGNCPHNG [ESM167] , PET hydrolysis observed: 4

get_value(item= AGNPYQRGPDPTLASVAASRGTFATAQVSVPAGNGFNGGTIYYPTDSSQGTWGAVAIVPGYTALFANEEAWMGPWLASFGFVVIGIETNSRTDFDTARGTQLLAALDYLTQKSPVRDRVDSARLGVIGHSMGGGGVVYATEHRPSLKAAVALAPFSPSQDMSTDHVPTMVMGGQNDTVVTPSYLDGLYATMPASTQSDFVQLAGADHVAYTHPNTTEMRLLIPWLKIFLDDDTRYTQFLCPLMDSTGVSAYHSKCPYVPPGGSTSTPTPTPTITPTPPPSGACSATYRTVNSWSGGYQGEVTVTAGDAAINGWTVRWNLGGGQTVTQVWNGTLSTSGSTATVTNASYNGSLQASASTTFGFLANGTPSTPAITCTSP [TEP114] , readout=PET hydrolysis) returns < 3

Recorded result, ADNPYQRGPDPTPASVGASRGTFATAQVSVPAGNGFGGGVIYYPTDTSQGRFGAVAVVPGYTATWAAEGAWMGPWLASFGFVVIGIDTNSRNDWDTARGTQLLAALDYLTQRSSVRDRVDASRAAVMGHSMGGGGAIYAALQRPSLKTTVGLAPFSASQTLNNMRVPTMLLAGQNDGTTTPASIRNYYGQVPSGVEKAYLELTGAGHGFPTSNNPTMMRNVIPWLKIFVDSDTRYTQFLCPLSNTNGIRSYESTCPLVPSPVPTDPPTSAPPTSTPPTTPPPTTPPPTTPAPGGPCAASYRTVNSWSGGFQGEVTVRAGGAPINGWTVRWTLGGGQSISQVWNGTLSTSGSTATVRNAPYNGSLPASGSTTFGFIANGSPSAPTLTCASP [TEP013] , PET hydrolysis: < 3

Looking up ADNPYQRGPDPTPASIAADHGPFATAQTTIPKGNGLGGGIVYYPTDTSQGTFGAIAIAPGYGTEWRWYGWLGPRLASFGFVVVGIETNSLSDYADARADQLLAALDWLVTSSPVRDRVDRTRLAVGGHSMGGGGALVAATRRPSLRSAVGMAPYVPDGILRGTSVPTILFGGQADTTVTPAYLASAYATIPATVPRAYPEIAGEGHGFAAGGGGGNSGAFARVMMVWLKVFVDADTRYPPFLCPTLSNTSGISKYQASCPLGPGGTIPPPDTSRLANANAGRCLDASGAGTANGTKVILWTCNHGANQQWNRT [ESM139] , I found its PET hydrolysis recorded as < 3

// PET hydrolysis lookup, sequence = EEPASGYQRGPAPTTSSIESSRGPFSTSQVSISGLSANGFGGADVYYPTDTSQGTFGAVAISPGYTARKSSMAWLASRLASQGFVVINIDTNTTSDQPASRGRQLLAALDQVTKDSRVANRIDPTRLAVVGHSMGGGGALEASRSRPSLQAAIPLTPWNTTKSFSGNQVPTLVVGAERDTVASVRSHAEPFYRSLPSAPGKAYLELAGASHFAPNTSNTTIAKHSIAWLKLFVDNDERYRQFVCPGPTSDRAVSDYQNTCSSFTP [DP053] , result: < 3
